- experiment: Drug uptake in human FaDu clone 49 cells assessed as increase in drug retention at 1.6 uM in RPMI medium with 10% FBS followed by 48 hrs chase period by inverted fluorescence microscopic analysis
measured_property: Drug uptake

molecule	measured_property	obs_value
CCCCCCOC(C)c1c(C)c2cc3nc(c4c5[nH]c(cc6nc(cc1[nH]2)C(C)=C6CC)c(C)c5C(=O)C4)[C@@H](CCC(=O)NC(CCC(=O)NCc1cccc(C#Cc2cccc(Nc4ncnc5cc(OCCOC)c(OCCOC)cc45)c2)c1)(CCC(=O)NCc1cccc(C#Cc2cccc(Nc4ncnc5cc(OCCOC)c(OCCOC)cc45)c2)c1)CCC(=O)NCc1cccc(C#Cc2cccc(Nc4ncnc5cc(OCCOC)c(OCCOC)cc45)c2)c1)[C@@H]3C (some centres undefined)	Drug uptake	Not Active
C=Cc1c(C)/c2[nH]/c1=C\C1=NC(=C\C3=C(C)C4C(=O)N(Cc5cccc(C#Cc6cccc(Nc7ncnc8cc(OCCOC)c(OCCOC)cc78)c6)c5)C(=O)/C(=C5N=C(\C=2)[C@@H](C)[C@@H]/5CCC(=O)OC)C4N3)/C(CC)=C1C (some centres undefined)	Drug uptake	Not Active
C=Cc1c(C)c2cc3nc(c(CC(=O)OC)c4[nH]c(cc5nc(cc1[nH]2)C(C)=C5CC)c(C)c4C(=O)NCCNC(=O)COCC(=O)NCCCOCCOCCOCCCNC(=O)Cc1cccc(I)c1)[C@@H](CCC(=O)OC)[C@@H]3C	Drug uptake	Not Active
